- assayed-system: recombinant human Meningioma Expressed Antigen 5 (MGEA5), also referred to as O-GlcNAcase (OGA) (Homo sapiens, UniProt O60502)
- Construct: Full length OGA enzyme was purchased at OriGene (cat #TP322411); purchased OriGene TP322411
- Sequence (O60502 1-916): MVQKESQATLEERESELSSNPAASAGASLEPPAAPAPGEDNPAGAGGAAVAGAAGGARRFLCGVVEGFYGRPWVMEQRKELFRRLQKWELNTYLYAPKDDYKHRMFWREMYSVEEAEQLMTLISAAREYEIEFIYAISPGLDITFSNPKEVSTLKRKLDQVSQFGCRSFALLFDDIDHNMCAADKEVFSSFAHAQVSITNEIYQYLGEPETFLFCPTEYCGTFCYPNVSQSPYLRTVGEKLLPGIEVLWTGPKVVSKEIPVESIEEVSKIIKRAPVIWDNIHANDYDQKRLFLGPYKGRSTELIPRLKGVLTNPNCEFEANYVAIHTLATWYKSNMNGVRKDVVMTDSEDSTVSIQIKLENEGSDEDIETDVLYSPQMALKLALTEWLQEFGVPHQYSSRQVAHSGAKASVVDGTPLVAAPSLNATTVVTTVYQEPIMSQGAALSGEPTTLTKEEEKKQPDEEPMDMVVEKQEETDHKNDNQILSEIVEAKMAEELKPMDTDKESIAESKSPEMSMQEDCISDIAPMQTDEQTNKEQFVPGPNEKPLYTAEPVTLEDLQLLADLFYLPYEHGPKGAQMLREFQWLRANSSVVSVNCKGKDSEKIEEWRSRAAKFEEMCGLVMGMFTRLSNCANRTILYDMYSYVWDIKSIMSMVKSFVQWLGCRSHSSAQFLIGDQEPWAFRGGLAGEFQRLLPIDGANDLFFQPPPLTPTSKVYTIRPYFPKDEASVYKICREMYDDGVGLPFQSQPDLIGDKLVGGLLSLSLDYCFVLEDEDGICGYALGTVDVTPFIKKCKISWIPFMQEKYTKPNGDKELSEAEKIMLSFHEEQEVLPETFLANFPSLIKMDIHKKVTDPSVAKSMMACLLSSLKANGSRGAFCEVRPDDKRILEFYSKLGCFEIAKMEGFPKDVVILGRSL
- test-name: OGA biochemical assay (inhibition of FM-GlcNAc hydrolysis, fluorescence)
- stated-conditions: FM-GlcNAc substrate, 6 h at room temperature, read-out: Enzymatic hOGA, pIC50 (converted)
- From the text: The assay is based on the inhibition of the hydrolysis of fluorescein mono-β-D-N-Acetyl-Glucosamine (FM-GlcNAc) (Mariappa et al. 2015, Biochem J 470:255) by the recombinant human Meningioma Expressed Antigen 5 (MGEA5), also referred to as O-GlcNAcase (OGA). […] The fluorescence of the latter can be measured at excitation wavelength 485 nm and emission wavelength 538 nm. An increase in enzyme activity results in an increase in fluorescence signal. […]
readout-name: IC50 (nM)

Below: 5 compounds and their reported IC50.
Identify measured IC50 corresponding to Cc1cc(C[C@H]2CCN([C@@H](C)c3ccc4oc(C)nc4n3)C2)cc(C)n1 [Compound 27a]
200

Give the measured IC50 for COc1cc(C2CCCN(C(C)c3ccc4oc(C)nc4n3)C2)cc(C(F)(F)F)n1 (racemic)
20

Check the records and state IC50 for Cc1cc(CN[C@H]2CCCN(C(C)c3ccc4sc(C)nc4n3)C2)cc(C)n1 (stereo partly drawn)
25.1

Recall and state the measured IC50 for Cc1cc([C@H]2CCCN([C@H](C)c3ccc4sc(C)nc4n3)C2)nc(C)n1 (racemic) .
63.1

Query IC50 for Cc1cc(C[C@@H]2CCN(C(C)c3cnc4[nH]c(C)nc4c3)C2)cc(C)n1 (mixture of isomers)
50.1

a = Cc1cc(C[C@H]2CCCN([C@@H](C)c3ccc4cn(C)nc4n3)C2)cc(C)n1 (relative stereo) [Compound 12a]
b = Cc1cc(OC[C@H]2CCCN(C(C)c3cc4nc(C)oc4cc3F)C2)cc(C)n1 (mixture of isomers)
Please choose the item with the lower IC50 value from this pair: a and b Kindly give the label for the entry you pick.
b
